test: Caspofungin plasma pharmacokinetics in anaesthetised, ventilated pigs (shock vs control); type: in vivo; conditions: pig, plasma, iv, 70 mg, control group (n = 16), 70 mg one-hour iv infusion, four hours after start of infusion, median, read-out: Cp (caspofungin plasma concentration at four hours)
result-type: level at 4 h (ng/mL)

{"columns": ["molecule", "numeric-result"],
 "data": [
  ["CC[C@H](C)C[C@H](C)CCCCCCCCC(=O)N[C@H]1C[C@@H](O)[C@@H](NCCN)NC(=O)[C@@H]2[C@@H](O)CCN2C(=O)[C@H]([C@H](O)CCN)NC(=O)[C@H]([C@H](O)[C@@H](O)c2ccc(O)cc2)NC(=O)[C@@H]2C[C@@H](O)CN2C(=O)[C@H]([C@@H](C)O)NC1=O [caspofungin, caspofungin acetate]", 20700]
]}

###

assay: Two-compartment population pharmacokinetic analysis (Monolix) of plasma caspofungin in pigs; type: in vivo; details: pig, plasma, iv, 70 mg, shock group (n = 12), 70 mg one-hour iv infusion, two-compartment population estimate, read-out: CL (central elimination clearance) (converted)
result-type: clearance (mL/min)

{"columns": ["compound", "value-unit", "numeric-result"],
 "data": [
  ["CC[C@H](C)C[C@H](C)CCCCCCCCC(=O)N[C@H]1C[C@@H](O)[C@@H](NCCN)NC(=O)[C@@H]2[C@@H](O)CCN2C(=O)[C@H]([C@H](O)CCN)NC(=O)[C@H]([C@H](O)[C@@H](O)c2ccc(O)cc2)NC(=O)[C@@H]2C[C@@H](O)CN2C(=O)[C@H]([C@@H](C)O)NC1=O [caspofungin, caspofungin acetate]", "mL/min", 3.5]
]}

###

assay: Caspofungin plasma pharmacokinetics in anaesthetised, ventilated pigs (shock vs control); assay type: in vivo; details: pig, plasma, iv, 70 mg, shock group (n = 12), 70 mg one-hour iv infusion, four hours after start of infusion, median, read-out: Cp (caspofungin plasma concentration at four hours)

{"columns": ["compound", "level at 4 h / ng/mL"],
 "data": [
  ["CC[C@H](C)C[C@H](C)CCCCCCCCC(=O)N[C@H]1C[C@@H](O)[C@@H](NCCN)NC(=O)[C@@H]2[C@@H](O)CCN2C(=O)[C@H]([C@H](O)CCN)NC(=O)[C@H]([C@H](O)[C@@H](O)c2ccc(O)cc2)NC(=O)[C@@H]2C[C@@H](O)CN2C(=O)[C@H]([C@@H](C)O)NC1=O [caspofungin, caspofungin acetate]", 16100]
]}

The measurements presented in this section are drawn from paper PMC3334764.
